molecular target: High affinity nerve growth factor receptor (Homo sapiens, UniProt P04629)
Sequence (P04629 whole entry): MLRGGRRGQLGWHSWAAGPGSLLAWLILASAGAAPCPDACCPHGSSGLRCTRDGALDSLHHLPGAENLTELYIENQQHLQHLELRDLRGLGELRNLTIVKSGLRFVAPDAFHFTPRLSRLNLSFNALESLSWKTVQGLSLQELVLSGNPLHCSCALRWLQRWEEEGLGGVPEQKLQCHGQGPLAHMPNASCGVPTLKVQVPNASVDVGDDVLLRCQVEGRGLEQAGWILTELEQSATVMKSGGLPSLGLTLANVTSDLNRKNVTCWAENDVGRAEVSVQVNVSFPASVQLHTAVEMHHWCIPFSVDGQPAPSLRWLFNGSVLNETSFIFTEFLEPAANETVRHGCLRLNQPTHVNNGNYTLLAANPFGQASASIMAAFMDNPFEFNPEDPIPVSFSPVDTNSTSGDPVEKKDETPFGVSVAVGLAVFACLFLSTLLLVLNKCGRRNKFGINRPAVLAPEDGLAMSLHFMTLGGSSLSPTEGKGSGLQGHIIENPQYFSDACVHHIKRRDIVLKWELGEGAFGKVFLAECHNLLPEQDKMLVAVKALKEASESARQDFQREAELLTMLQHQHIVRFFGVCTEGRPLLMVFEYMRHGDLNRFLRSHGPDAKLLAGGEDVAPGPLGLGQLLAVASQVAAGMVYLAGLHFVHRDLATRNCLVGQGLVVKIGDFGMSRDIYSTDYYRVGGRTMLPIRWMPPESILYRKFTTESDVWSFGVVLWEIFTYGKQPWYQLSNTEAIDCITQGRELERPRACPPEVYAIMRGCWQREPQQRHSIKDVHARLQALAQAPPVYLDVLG
parameter: pIC50
Notebook: values listed as pIC50 are -log10 of the concentration (mol/L).

                           smiles_structure  result
0  O=C(N[C@H]1CC[C@H](O)CC1)c1cnn2ccc(NCc3cccc(F)c3)nc12    8.80
1  O=C(N[C@H]1CC[C@H](O)CC1)c1cnc2ccc(NCc3cccc(F)c3)nn12    8.55
2  CN(Cc1cccc(F)c1)c1ccn2ncc(C(=O)NC3CCOCC3)c2n1    8.49
3  CN(Cc1cccc(F)c1)c1ccn2ncc(C(=O)N[C@H]3CC[C@H](O)CC3)c2n1    8.89
4  CO[C@H]1CC[C@H](NC(=O)c2cnc3ccc(NCc4cccc(F)c4)nn23)CC1    8.52

Prompt: What measured pIC50 goes with CO[C@H]1CC[C@H](NC(=O)c2cnn3ccc(N(C)Cc4cccc(F)c4)nc23)CC1 ?
Completion: 8.96
